experiment-description: folding stability dG unfold from chymotrypsin proteolysis; higher = more stable
List of folding stability dG unfold values.
Please give a number only; it is taken to be in kcal/mol.

// below: answered sequences
{"input-sequence": "SAGGSAGGSAGGSPNWVWILITVKITFPIYKYDPDGKPLEPIEITIEFTVLIRIPPGDFSAGGSAGGSAGGS [r4_425_TrROS]", "folding stability dG unfold (kcal/mol)": 5.34}
{"input-sequence": "SAGGSPLLVLHIRLRRPGEEREIVIPSDLIEDMPLEEIEEILRALPWIDEAEIELEEFPPLRPDELSAGGSA [r2_282_TrMRF]", "folding stability dG unfold (kcal/mol)": 1.98}
{"input-sequence": "SAGGSDNKPFRIEPTGVDSVEANPDGMVEIEWRFRLPNGYVLTWRETINPKNGKPSIEPTLVPPGESAGGSA [r2_321_TrROS]", "folding stability dG unfold (kcal/mol)": 0.722}
{"input-sequence": "SAGGMPPGQVVRLRLERVSPTWVRLYFPETGEVLYFPVRPDATLAEAEAIARELAERLGYPVEIETVSAGGS [r16_446_TrMRF]", "folding stability dG unfold (kcal/mol)": 3.78}
{"input-sequence": "SAGGSAGGKKKIKPPEVTIKIKNKDGSVFEAKITKVEYDEETKKLYLEIEIEVNGKKYKLTIELSAGGSAGG [r6_962_TrROS_Hall]", "folding stability dG unfold (kcal/mol)": 4.49}
{"input-sequence": "SAGMETIEVPLPVEEIKEALDAGLSPEEIARLLAEETGEEVEIEVGGRKITITRNEDGELIVRIEVKPDSAG [r5_343_TrROS_Hall]", "folding stability dG unfold (kcal/mol)": 2.22}

Lookup: Which measured folding stability dG unfold value corresponds to SAGGVKEIEIPNGMRITDVDPPDGYWKIKIENPDNGKEVERPIPPGDKLKIPPNAPVTITEIEPYPPSAGGS [r16_123_TrROS] ?
Found: -0.103

Each recorded value in this set is attributed to the supplement of paper PMC12764529.
